Data origin: paper PMC9952648

Each entry below lists one item and its recorded Nitroxide recovered upon reoxidation with potassium ferricyanide value.
# System: rat liver microsomes (RLM)
# assay notes: Aerobic incubation of nitroxides with rat liver microsomes and NADPH monitored by EPR
# experimental setup: ferricyanide 1 mM added to whole system after 30 min incubation
experimental readout: Nitroxide recovered upon reoxidation with potassium ferricyanide (%)

compound	meas value
CC1(C)CC(=O)CC(C)(C)N1[O] [Nitroxide 1, reference compound]	15
CC1(C)CC(C(=O)O)C(C)(C)N1[O] (centres unmarked) [Nitroxide 2]	42

---

# Test system: rat liver microsomes (RLM)
# assay notes: Aerobic incubation of nitroxides with rat liver microsomes and NADPH monitored by EPR
# experimental setup: without NADPH, nitroxide 100 µM
Marks after values point to notes of the source that are not given here.

compound	target desc	Initial rate of decrease, -NADPH
CC1(C)CC(C(=O)O)C(C)(C)N1[O] (centres unmarked) [Nitroxide 2]	rat liver microsomes (RLM)	0.0 ** nmol·min^−1·mg^−1 prot
CC1(C)CC(=O)CC(C)(C)N1[O] [Nitroxide 1, reference compound]	rat liver microsomes (RLM)	0.0 *** nmol·min^−1·mg^−1 prot
CCC1(CC)C=C(C(=O)O)C(CC)(CC)N1[O] [Nitroxide 4]	rat liver microsomes (RLM)	0.0 ** nmol·min^−1·mg^−1 prot
CCC1(CC)c2ccc(C(=O)O)cc2C(CC)(CC)N1[O] [Nitroxide 5]	rat liver microsomes (RLM)	0.0 *** nmol·min^−1·mg^−1 prot
CCC1(CC)CC(C(=O)O)C(CC)(CC)N1[O] (centres unmarked) [Nitroxide 3]	rat liver microsomes (RLM)	0.0 ** nmol·min^−1·mg^−1 prot

---

# System: rat liver microsomes (RLM)
# experimental setup: anaerobic; ferricyanide 1 mM added to whole system after 30 min incubation (nitroxide 5: with simultaneous Clo 25 μM)
experimental readout: EPR signal regenerated by reoxidation with potassium ferricyanide

compound	meas value
CCC1(CC)c2ccc(C(=O)O)cc2C(CC)(CC)N1[O] [Nitroxide 5]	30%
CC1(C)CC(=O)CC(C)(C)N1[O] [Nitroxide 1, reference compound]	37%
CCC1(CC)CC(C(=O)O)C(CC)(CC)N1[O] (stereo not shown) [Nitroxide 3]	hardly detectable
CCC1(CC)C=C(C(=O)O)C(CC)(CC)N1[O] [Nitroxide 4]	hardly detectable

---

Form field: Initial rate of decrease, + Clo (one value per entry).
# System: rat liver microsomes (RLM)
# assay notes: Aerobic incubation of nitroxides with rat liver microsomes and NADPH monitored by EPR
# experimental setup: whole system + clotrimazole 25 μM, nitroxide 100 µM
Marks after values point to notes of the source that are not given here.
experimental readout: Initial rate of decrease, + Clo

compound	experimental readout	meas value
CCC1(CC)CC(C(=O)O)C(CC)(CC)N1[O] (centres unmarked) [Nitroxide 3]	Initial rate of decrease, + Clo	0.0 ** nmol·min^−1·mg^−1 prot
CCC1(CC)C=C(C(=O)O)C(CC)(CC)N1[O] [Nitroxide 4]	Initial rate of decrease, + Clo	0.0 ** nmol·min^−1·mg^−1 prot
CC1(C)CC(=O)CC(C)(C)N1[O] [Nitroxide 1, reference compound]	Initial rate of decrease, + Clo	1.2 ± 0.3 nmol·min^−1·mg^−1 prot
CCC1(CC)c2ccc(C(=O)O)cc2C(CC)(CC)N1[O] [Nitroxide 5]	Initial rate of decrease, + Clo	0.0 *** nmol·min^−1·mg^−1 prot
CC1(C)CC(C(=O)O)C(C)(C)N1[O] (centres unmarked) [Nitroxide 2]	Initial rate of decrease, + Clo	0.94 ± 0.09 nmol·min^−1·mg^−1 prot
